# Tested on: HCV 1b_Huh-Luc/Neo-ET cell line persistently expressing a bicistronic genotype 1b replicon in Huh 7 cells
# TEST METHOD NOTES: HCV replicon assay (luciferase readout)
# Type: cell-based
# CONDITION: Hepatitis C virus, Huh-7, 72 h, read-out: Inhibition of HCV genotype 1b
pEC50: −log10 of the molar value.
METRIC: pEC50

Supply recorded pEC50 for COC[C@H](NC(=O)OC)C(=O)N1CCC[C@H]1c1ncc(-c2ccc(C#Cc3ccc(-c4cnc([C@@H]5CCCN5C(=O)[C@H](COC)NC(=O)OC)[nH]4)cc3)cc2)[nH]1 [Compound 976] here.
> 9.00

Supply recorded pEC50 for COC(=O)N[C@@H](C(=O)N1CCC[C@H]1c1ncc(-c2ccc(C#Cc3ccc(-c4cnc([C@@H]5CCCN5C(=O)[C@H](NC(=O)OC)c5ccccc5)[nH]4)cc3)cc2)[nH]1)c1ccccc1 [Compound 156] here.
> 9.00

Supply recorded pEC50 for CC(C)(C)OC(=O)N[C@@H](C(=O)N1CCC[C@H]1CNC(=O)c1ccc(C#Cc2ccc(-c3cnc([C@@H]4CCCN4C(=O)[C@H](NC(=O)OC(C)(C)C)c4ccccc4)[nH]3)cc2)cc1)c1ccccc1 [Compound 192] here.
8.00 to 9.00

Supply recorded pEC50 for CC[C@@H](C)[C@H](NC(=O)OC)C(=O)N1CCC[C@H]1c1ncc(-c2ccc(C#Cc3ccc4nc([C@@H]5CCCN5C(=O)[C@@H](NC(=O)OC)[C@H](C)CC)[nH]c4c3)cc2)[nH]1 [Compound 1024] here.
> 9.00

Supply recorded pEC50 for COC(=O)N[C@@H](C(=O)N1CCC[C@H]1c1ncc(-c2ccc(C#Cc3ccc(-c4cnc([C@@H]5CCCN5C(=O)[C@H](NC(=O)N5CCS(=O)(=O)CC5)c5ccccc5)[nH]4)cc3)cc2)[nH]1)c1ccccc1 [Compound 253] here.
> 9.00

Supply recorded pEC50 for COC(=O)N[C@H](C(=O)N1CCC[C@H]1c1nc2c([nH]1)-c1ccc(C#Cc3ccc(-c4cnc([C@@H]5CCCN5C(=O)[C@H](NC(=O)OC)c5ccccc5)[nH]4)cc3F)cc1CC2)C(C)C [Compound 1098] here.
> 9.00

Supply recorded pEC50 for COC(=O)N[C@H](C(=O)N1CCC[C@H]1c1nc2ccc(C#Cc3ccc(-c4cnc([C@@H]5CCCN5C(=O)[C@H](NC(=O)OC)c5ccccc5)[nH]4)cc3)cc2[nH]1)C(C)C [Compound 1022] here.
> 9.00

Supply recorded pEC50 for O=C(N[C@@H](C(=O)N1CCC[C@H]1C(=O)NCc1ccc(C#Cc2ccc(-c3cnc([C@@H]4CCCN4C(=O)[C@H](NC(=O)C4CC4)c4ccccc4)[nH]3)cc2)cc1)c1ccccc1)C1CC1 [Compound 190] here.
> 9.00

Supply recorded pEC50 for COC(=O)N[C@@H](C(=O)N1CCC[C@H]1c1ncc(-c2ccc(C#Cc3ccc(-c4cnc([C@@H]5CCCN5C(=O)[C@H](NC(=O)OC)c5ccccc5)[nH]4)cn3)cc2)[nH]1)c1ccccc1 [Compound 1010] here.
> 9.00

Supply recorded pEC50 for CCC(CC)[C@H](NC(=O)OC)C(=O)N1CCC[C@H]1c1ncc(-c2ccc(C#Cc3ccc4nc([C@@H]5CCCN5C(=O)[C@@H](NC(=O)OC)C(CC)CC)[nH]c4c3)cc2)[nH]1 [Compound 1030] here.
> 9.00

Supply recorded pEC50 for O=C(N[C@@H](C(=O)N1CCC[C@H]1c1ncc(-c2ccc(C#Cc3ccc(-c4cnc([C@@H]5CCCN5C(=O)[C@H](NC(=O)N5CCOCC5)c5ccccc5)[nH]4)cc3)cc2)[nH]1)c1ccccc1)N1CCOCC1 [Compound 248] here.
> 9.00

Supply recorded pEC50 for CC(C)(C)OC(=O)NC(C)(C)C(=O)N1CCC[C@H]1c1ncc(C#Cc2ccc(-c3cnc([C@@H]4CCCN4C(=O)C(C)(C)NC(=O)OC(C)(C)C)[nH]3)cc2)[nH]1 [Compound 106] here.
< 6.00

Supply recorded pEC50 for COC(=O)N[C@H](C(=O)N1CCC[C@H]1c1ncc(-c2ccc(C#Cc3ccc4nc([C@@H]5CCCN5C(=O)[C@@H](NC(=O)OC)C(C)(C)C)[nH]c4c3)cc2)[nH]1)C(C)(C)C [Compound 1041] here.
> 9.00

Supply recorded pEC50 for COC(=O)N[C@H](C(=O)N1CCC[C@H]1c1ncc(-c2cc(C)c(C#Cc3ccc4nc([C@@H]5CCCN5C(=O)[C@@H](NC(=O)OC)C(C)C)[nH]c4c3)c(C)c2)[nH]1)C(C)C [Compound 1060] here.
> 9.00

Supply recorded pEC50 for COC(=O)N[C@H](C(=O)N1CCC[C@H]1c1ncc(-c2ccc(C#Cc3ccc4c(c3)CCc3nc([C@@H]5CCCN5C(=O)[C@@H](NC(=O)OC)C(C)C)[nH]c3-4)cc2)[nH]1)C(C)C [Compound 1094] here.
> 9.00

Supply recorded pEC50 for COC(=O)N[C@H](C(=O)N1CCC[C@H]1c1ncc(-c2ccc(C#Cc3ccc(-c4cnc([C@@H]5CCCN5C(=O)[C@@H](NC(=O)OC)C5CCOCC5)[nH]4)c(F)c3)cc2)[nH]1)C1CCOCC1 [Compound 1012] here.
> 9.00

Supply recorded pEC50 for CC1(O)CCN(C(=O)N[C@@H](C(=O)N2CCC[C@H]2c2ncc(C#Cc3ccc(-c4ccc(-c5cnc([C@@H]6CCCN6C(=O)[C@H](NC(=O)N6CCC(C)(O)CC6)c6ccccc6)[nH]5)cc4)cc3)[nH]2)c2ccccc2)CC1 [Compound 870] here.
> 9.00

Supply recorded pEC50 for COC(=O)N[C@H](C(=O)N1CCC[C@H]1c1ncc(-c2ccc(C#Cc3ccc(-c4cnc([C@H](C)NC(=O)[C@@H](C(C)C)N(C)C)[nH]4)cc3)cc2)[nH]1)C(C)C [Compound 982] here.
6.00 to 8.00

Supply recorded pEC50 for COC(=O)N[C@@H](C(=O)N1CCC[C@H]1c1ncc(C#Cc2ccc(C#Cc3cnc([C@@H]4CCCN4C(=O)[C@@H](c4ccccc4)N4CCCC4)[nH]3)cc2)[nH]1)c1ccccc1 [Compound 311] here.
> 9.00
